- System: iron/ascorbate induced lipid peroxidation
- Method: Lipid peroxidation (LPO) model, heat-treated hepatic microsomes, TBA reactive substances
- Assay type: biochemical
- Stated Conditions: rat hepatic microsomes, reaction started with 10 uM FeSO4; mean ± s.e.m., n = 3-5

- Molecule: "O=c1c(O)c(-c2ccc(O)c(O)c2)oc2ccccc12 [Compound 9a, 3′3,3′,4′-trihydroxyflavone]"
  Target Or System: "iron/ascorbate induced lipid peroxidation"
  IC50 / µM: 1.8
- Molecule: "C[N+](C)(C)CCCCCCCCOc1c(-c2ccc(O)c(O)c2)oc2ccccc2c1=O"
  Target Or System: "iron/ascorbate induced lipid peroxidation"
  IC50 / µM: 1
- Molecule: "C[C@@H]1O[C@@H](OC[C@H]2O[C@@H](Oc3c(-c4ccc(O)c(O)c4)oc4cc(O)cc(O)c4c3=O)[C@H](O)[C@@H](O)[C@@H]2O)[C@H](O)[C@H](O)[C@H]1O [Rutin, reference compound]"
  Target Or System: "iron/ascorbate induced lipid peroxidation"
  IC50 / µM: 10
- Molecule: "O=c1cc(-c2ccc(O)c(O)c2)oc2cc(OCCO)ccc12 [Compound 8c, 3′,4′-dihydroxy-7-hydroxyethoxyflavone]"
  Target Or System: "iron/ascorbate induced lipid peroxidation"
  IC50 / µM: 16.4
- Molecule: "CN(C)CCCOc1ccc2c(=O)cc(-c3ccc(O)c(O)c3)oc2c1"
  Target Or System: "iron/ascorbate induced lipid peroxidation"
  IC50 / µM: 8.1
- Molecule: "C[C@@H]1O[C@@H](OC[C@H]2O[C@@H](Oc3c(-c4ccc(O)c(O)c4)oc4ccccc4c3=O)[C@H](O)[C@@H](O)[C@@H]2O)[C@H](O)[C@H](O)[C@H]1O [Compound 9j, 3′,4′-dihydroxy-3-rutinoseflavone]"
  Target Or System: "iron/ascorbate induced lipid peroxidation"
  IC50 / µM: 15.7

Where these numbers come from: patent US20020147353A1
